Entries annotated with measured protein stability index
B1: ZNF449 (parent)
chain: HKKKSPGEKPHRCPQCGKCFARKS

Variants of: B1
Protocol summary: protein stability index of a GFP-peptide fusion (GPS, HEK-293T) (PSI 1-6); higher = more stable;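 note: lentivirally expressed fusions sorted by FACS into six bins by GFP to DsRed ratio, PSI derived from sequencing read proportions per bin multiplied by bin number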
Experimental setup: c terminus: a fixed tail appended

{"columns": ["Mutation name", "protein stability index"],
 "data": [
  ["R12Q", 3.19],
  ["H11G", 3.57],
  ["G7I", 2.94],
  ["R22K", 3.83],
  ["F20I", 4.38],
  ["E8P", 3.63],
  ["A21L", 3.26],
  ["E8K", 3.57],
  ["K18H", 4.25],
  ["S5Q", 3.84],
  ["R22V", 3.15]
]}
